Kindly supply the reported inhibition at 1 µM values for the records listed here.
Biological target: panel of 255 wild-type kinases (Homo sapiens, UniProt Q13237)
Sequence (Q13237 whole entry): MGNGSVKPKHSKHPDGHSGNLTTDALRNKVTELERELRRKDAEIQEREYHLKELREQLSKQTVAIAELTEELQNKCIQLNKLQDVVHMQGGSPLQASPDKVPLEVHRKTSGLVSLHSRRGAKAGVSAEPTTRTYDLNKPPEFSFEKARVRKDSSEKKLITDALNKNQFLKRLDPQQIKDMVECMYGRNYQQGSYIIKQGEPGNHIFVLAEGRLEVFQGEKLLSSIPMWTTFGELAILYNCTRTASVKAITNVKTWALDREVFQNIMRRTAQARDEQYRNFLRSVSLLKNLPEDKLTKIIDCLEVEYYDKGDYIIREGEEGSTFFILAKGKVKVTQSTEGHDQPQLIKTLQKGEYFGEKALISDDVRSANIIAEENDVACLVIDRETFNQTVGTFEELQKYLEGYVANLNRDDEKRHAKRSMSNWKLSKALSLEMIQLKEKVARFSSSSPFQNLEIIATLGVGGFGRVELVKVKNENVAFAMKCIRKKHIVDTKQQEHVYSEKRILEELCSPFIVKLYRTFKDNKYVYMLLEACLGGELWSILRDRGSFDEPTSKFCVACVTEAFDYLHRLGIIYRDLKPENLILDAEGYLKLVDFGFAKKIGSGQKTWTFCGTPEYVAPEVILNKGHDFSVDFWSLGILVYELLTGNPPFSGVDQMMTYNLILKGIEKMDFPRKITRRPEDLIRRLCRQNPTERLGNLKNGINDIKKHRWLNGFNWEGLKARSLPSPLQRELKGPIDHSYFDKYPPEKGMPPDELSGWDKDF
Test: Kinase panel profiling at 1 µmol/L (MSA or IMAP), percentage inhibition
Assay type: biochemical
Settings: CGK2 kinase assay; 1 µmol/L single concentration; read-out: %-inhibition CGK2
Entry rule: numbers only, all in %.

**Q:** Need inhibition at 1 µM, item Cc1cc(Nc2ncnc3ccc(NC4=NC(C)(C)CO4)cc23)ccc1Oc1ccn2ncnc2c1 [tucatinib]
**A:** -0.162

**Q:** Query CCc1nc(C(N)=O)c(Nc2ccc(N3CCC(N4CCN(C)CC4)CC3)c(OC)c2)nc1NC1CCOCC1 [gilteritinib] next
**A:** 82

**Q:** Now consider CCN1C(=O)N(c2c(F)c(OC)cc(OC)c2F)Cc2cnc3[nH]c(CN4CCOCC4)cc3c21 [pemigatinib] .
**A:** 1.58

**Q:** Can you check FC(F)(F)c1ccc(CNc2ccc(Cc3c[nH]c4ncc(Cl)cc34)cn2)cn1 [pexidartinib] next?
**A:** 17

###

Target: panel of 255 wild-type kinases (Homo sapiens)
Assay: Kinase panel profiling at 1 µmol/L (MSA or IMAP), percentage inhibition
Assay type: biochemical
Conditions: kinase WNK3; 1 µmol/L single concentration; read-out: %-inhibition at 1 µmol/L, WNK3
Recorded metric: inhibition at 1 µM (%)
Report the value in % with no unit label.

**Q:** Look at this molecule and give its reported inhibition at 1 µM. "C[C@H](Nc1ncnc2nc[nH]c12)c1cc2cccc(Cl)c2c(=O)n1-c1ccccc1"
**A:** -0.718

**Q:** Moving on to "C=CC(=O)N1CCC([C@@H]2CCNc3c(C(N)=O)c(-c4ccc(Oc5ccccc5)cc4)nn32)CC1"
**A:** 5.7

**Q:** Likewise for "CCc1nc(C(N)=O)c(Nc2ccc(N3CCC(N4CCN(C)CC4)CC3)c(OC)c2)nc1NC1CCOCC1" ?
**A:** 5

**Q:** Likewise for "CCN1C(=O)N(c2c(F)c(OC)cc(OC)c2F)Cc2cnc3[nH]c(CN4CCOCC4)cc3c21" ?
**A:** -0.586

**Q:** Then "Cc1cc(Nc2ncnc3ccc(NC4=NC(C)(C)CO4)cc23)ccc1Oc1ccn2ncnc2c1" ?
**A:** 3

**Q:** Cool, now "COC(=O)N[C@@H](C)CNc1nccc(-c2cn(C(C)C)nc2-c2cc(Cl)cc(NS(C)(=O)=O)c2F)n1"
**A:** -1.55

**Q:** Would you kindly repeat that for "Cn1cnc2c(F)c(Nc3ccc(Br)cc3F)c(C(=O)NOCCO)cc21" ?
**A:** -2.67

**Q:** "COc1cc2ncnc(Nc3ccc(F)c(Cl)c3)c2cc1NC(=O)/C=C/CN1CCCCC1" , same question.
**A:** -2.62

**Q:** Quick one: "CCn1c(=O)c(-c2cc(NC(=O)Nc3ccccc3)c(F)cc2Br)cc2cnc(NC)cc21"
**A:** -1.09

**Q:** Entry "CO[C@]1(C(=O)N[C@@H](C)c2ccc(-n3cc(F)cn3)nc2)CC[C@H](c2nc(C)cc(Nc3cc(C)[nH]n3)n2)CC1" please
**A:** 0.505

**Q:** Input "Cn1cc(-c2cc3c(N4CCN(c5ncc([C@@](C)(N)c6ccc(F)cc6)cn5)CC4)ncnn3c2)cn1"
**A:** -0.0892

**Q:** Another molecule to look at: "CN1CCN(c2ccc(C(=O)Nc3n[nH]c4ccc(Cc5cc(F)cc(F)c5)cc34)c(NC3CCOCC3)c2)CC1"
**A:** 8.51

**Q:** Another molecule: "COc1ccc(CN2C3CC2CN(c2ccc(-c4cc(OCC(C)(C)O)cn5ncc(C#N)c45)cn2)C3)cn1"
**A:** -1.49

**Q:** Do the same for "Cn1cnc2c(F)c(Nc3ccc(Br)cc3Cl)c(C(=O)NOCCO)cc21" please
**A:** -1.43

**Q:** Try the molecule "FC(F)(F)c1ccc(CNc2ccc(Cc3c[nH]c4ncc(Cl)cc34)cn2)cn1"
**A:** 0.624

###

Test system: 134 cancer cell lines
Experiment: Cell viability assay (ATPlite, 72 hours), IC50 on cancer cell line panel
Conditions: Homo sapiens, SW982, read-out: IC50 in cell proliferation assay
Recorded metric: pIC50
pIC50 field: float, defined as -log10 of concentration (mol/L).

**Q:** Using the record for "CCN1C(=O)N(c2c(F)c(OC)cc(OC)c2F)Cc2cnc3[nH]c(CN4CCOCC4)cc3c21" , report its pIC50.
**A:** 5.89

**Q:** And the next one, "C[C@@H](Oc1cc(-c2cnn(C3CCNCC3)c2)cnc1N)c1c(Cl)ccc(F)c1Cl" ?
**A:** 5.84

**Q:** Now give it for "Cn1cc(-c2cc3c(N4CCN(c5ncc([C@@](C)(N)c6ccc(F)cc6)cn5)CC4)ncnn3c2)cn1" too.
**A:** 4.97

###

Give IC50 for every item shown.
Test system: 134 cancer cell lines
Experiment: Cell viability assay (ATPlite, 72 hours), IC50 on cancer cell line panel
Settings: Homo sapiens, NCI-H1650, read-out: IC50 in cell proliferation assay, NCI-H1650 cell line (EGFR exon19del)
API: value field is a number in µM; no unit string.

**Q:** Any idea what IC50 came out for "O=C(c1ccc(F)c(F)c1Nc1ccc(I)cc1F)N1CC(O)([C@@H]2CCCCN2)C1" on 134 cancer cell lines?
**A:** 0.527

**Q:** Follow-up item: "CN1CCN(c2ccc(C(=O)Nc3n[nH]c4ccc(Cc5cc(F)cc(F)c5)cc34)c(NC3CCOCC3)c2)CC1"
**A:** 2.44

**Q:** Ok, now "Cn1cnc2c(F)c(Nc3ccc(Br)cc3F)c(C(=O)NOCCO)cc21"
**A:** 8.56

###

So I've got a bunch of compounds here, and I need their inhibition at 1 µM values.
Biological target: panel of 255 wild-type kinases (Homo sapiens, UniProt Q9P289)
Sequence (Q9P289 whole entry): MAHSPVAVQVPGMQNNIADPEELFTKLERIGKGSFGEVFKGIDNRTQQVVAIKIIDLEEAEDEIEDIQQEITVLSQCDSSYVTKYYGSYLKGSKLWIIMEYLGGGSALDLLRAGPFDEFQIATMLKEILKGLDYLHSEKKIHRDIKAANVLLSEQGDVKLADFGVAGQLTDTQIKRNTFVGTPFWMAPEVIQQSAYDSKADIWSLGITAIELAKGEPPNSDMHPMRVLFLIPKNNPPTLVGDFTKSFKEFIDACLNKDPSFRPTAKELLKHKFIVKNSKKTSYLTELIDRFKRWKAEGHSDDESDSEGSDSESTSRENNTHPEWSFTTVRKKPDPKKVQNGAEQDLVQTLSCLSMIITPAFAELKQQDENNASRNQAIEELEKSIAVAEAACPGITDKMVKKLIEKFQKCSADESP
Assay: Kinase panel profiling at 1 µmol/L (MSA or IMAP), percentage inhibition
Format: biochemical
Conditions: MST4; 1 µmol/L single concentration; read-out: %-inhibition, MST4
Quick note: give the figure in %, leave out the unit.

**Q:** What value of inhibition at 1 µM has been reported for the following compound? "CO[C@]1(C(=O)N[C@@H](C)c2ccc(-n3cc(F)cn3)nc2)CC[C@H](c2nc(C)cc(Nc3cc(C)[nH]n3)n2)CC1"
**A:** -1.47

**Q:** Then what about the compound "O=C(Nc1cnn2ccc(N3CCC[C@@H]3c3cc(F)ccc3F)nc12)N1CC[C@H](O)C1" ?
**A:** 1.67

**Q:** Similarly, "Cn1cc(-c2cc3c(N4CCN(c5ncc([C@@](C)(N)c6ccc(F)cc6)cn5)CC4)ncnn3c2)cn1" ?
**A:** 7

**Q:** Then "COC(=O)N[C@@H](C)CNc1nccc(-c2cn(C(C)C)nc2-c2cc(Cl)cc(NS(C)(=O)=O)c2F)n1" ?
**A:** -4.45

**Q:** What do you have for "C=CC(=O)N1CCC([C@@H]2CCNc3c(C(N)=O)c(-c4ccc(Oc5ccccc5)cc4)nn32)CC1" ?
**A:** -1

**Q:** Next: "C[C@H](Nc1ncnc2nc[nH]c12)c1cc2cccc(Cl)c2c(=O)n1-c1ccccc1"
**A:** -3.25

**Q:** Quick one: "C[C@H]1Oc2cc(cnc2N)-c2c(nn(C)c2C#N)CN(C)C(=O)c2ccc(F)cc21"
**A:** -8

**Q:** Subsequent entry: "CCN1C(=O)N(c2c(F)c(OC)cc(OC)c2F)Cc2cnc3[nH]c(CN4CCOCC4)cc3c21"
**A:** 56

**Q:** Then "COc1cc2ncnc(Nc3ccc(F)c(Cl)c3)c2cc1NC(=O)/C=C/CN1CCCCC1" ?
**A:** 12

**Q:** "Cc1cc(Nc2ncnc3ccc(NC4=NC(C)(C)CO4)cc23)ccc1Oc1ccn2ncnc2c1" , same question.
**A:** 3

**Q:** Repeat for the following compound: "CCc1nc(C(N)=O)c(Nc2ccc(N3CCC(N4CCN(C)CC4)CC3)c(OC)c2)nc1NC1CCOCC1"
**A:** 4.67

**Q:** Again, but for "CCn1c(=O)c(-c2cc(NC(=O)Nc3ccccc3)c(F)cc2Br)cc2cnc(NC)cc21"
**A:** -0.174

**Q:** // repeat for "CCN1CCN(c2ccc(Nc3cc(N(C)C(=O)Nc4c(Cl)c(OC)cc(OC)c4Cl)ncn3)cc2)CC1" and report
**A:** -10

**Q:** Can you handle "Cn1cnc2c(F)c(Nc3ccc(Br)cc3Cl)c(C(=O)NOCCO)cc21" next?
**A:** -0.349

**Q:** Item: "FC(F)(F)c1ccc(CNc2ccc(Cc3c[nH]c4ncc(Cl)cc34)cn2)cn1"
**A:** 7
